Protein target, amino acids: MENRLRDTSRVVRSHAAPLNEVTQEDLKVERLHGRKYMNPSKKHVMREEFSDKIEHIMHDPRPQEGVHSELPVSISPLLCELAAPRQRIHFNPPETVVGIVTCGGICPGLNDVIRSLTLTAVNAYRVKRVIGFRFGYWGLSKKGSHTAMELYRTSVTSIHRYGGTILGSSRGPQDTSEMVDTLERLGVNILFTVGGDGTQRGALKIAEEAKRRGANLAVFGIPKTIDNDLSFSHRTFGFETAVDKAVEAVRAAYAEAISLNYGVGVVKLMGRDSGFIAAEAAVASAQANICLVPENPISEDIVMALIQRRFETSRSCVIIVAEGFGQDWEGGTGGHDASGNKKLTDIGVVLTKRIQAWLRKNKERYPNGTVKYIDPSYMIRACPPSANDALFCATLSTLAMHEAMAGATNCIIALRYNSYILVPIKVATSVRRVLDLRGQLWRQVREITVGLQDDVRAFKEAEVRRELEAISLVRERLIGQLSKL
pIC50: −log10 of the molar value.
reported metric: pIC50

Use these answered entries as a reference point.
Cc1cc(NS(=O)(=O)C2CCN(C(=O)Cc3ccc(Cl)c(Cl)c3)CC2)no1    4.89
Cc1cc(NS(=O)(=O)c2ccc(NC(=O)Cc3ccc(Cl)cc3Cl)cc2)no1    4.84

[P] Cc1cc(NS(=O)(=O)c2ccc(NC(=O)Cc3ccc(Cl)c(C(F)(F)F)c3)cc2)no1
[Q] Cc1cc(NS(=O)(=O)c2cccc(NC(=O)Cc3ccc(Cl)c(Cl)c3)c2)no1
[R] Cc1cc(NS(=O)(=O)c2ccc(NC(=O)C(C)(C)c3ccc(Cl)c(Cl)c3)cc2)no1
[S] Cc1cc(NS(=O)(=O)c2ccc(NC(=O)Cc3ccc(Cl)cc3)cc2)no1
[T] O=C(Cc1ccc(Cl)c(Cl)c1)Nc1ccc(S(=O)(=O)Nc2nncs2)cc1
[Q] Put these in order: smallest pIC50 first, largest last. Answer with the labels in sequence, matching the requested order.
[A] R, Q, S, P, T
